Each recorded value in this set is attributed to patent US6127406A.

Test system: microtubule network of cells
Test: Microtubule bundling patterns in cells by immunofluorescence
Assay type: cell-based
Conditions: concentration not given
result_type: Microtubule bundling

C=CC=CC(C)C(OC(N)=O)C(C)C(OC(C)=O)C(C)CC(C)=CC(C)C(O)C(C)C=CC(CC1OC(=O)C(C)C(OC(C)=O)C1C)OC(C)=O (stereo not drawn) [Analog 2, Discodermolide-3,7,17-triacetate]    negative
C=CC=CC(C)C(OC(N)=O)C(C)C(O)C(C)CC(C)=CC(C)C(OC(C)=O)C(C)C=CC(CC1OC(=O)C(C)C(OC(C)=O)C1C)OC(C)=O (stereo not drawn) [Analog 3, Discodermolide-3,7,11-triacetate]    negative
C=CC=CC(C)C(OC(N)=O)C(C)C(O)C(C)CC(C)=CC(C)C(OC(C)=O)C(C)C=CC(O)CC1OC(=O)C(C)C(OC(C)=O)C1C (stereo not drawn) [Analog 5, Discodermolide-3,11-diacetate]    negative
C=CC=CC(C)C(OC(N)=O)C(C)C(OC(C)=O)C(C)CC(C)=CC(C)C(OC(C)=O)C(C)C=CC(CC1OC(=O)C(C)C(OC(C)=O)C1C)OC(C)=O (stereo not drawn) [Analog 1, Discodermolide-3,7,11,17-tetraacetate]    negative
